B1: Osa-1-4 twister ribozyme (parent)
chain: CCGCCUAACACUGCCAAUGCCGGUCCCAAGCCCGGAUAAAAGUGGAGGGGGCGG

# Variants of: B1
# TEST SUMMARY: self-cleavage, relative activity (ratio to wild type); higher = more cleavage; co-transcriptional
QUANTITY MEASURED: self-cleavage
Quick one: just the number, no unit, thanks!

The cases that follow already have their self-cleavage on record.
| VARIANT STRING | QUANTITY MEASURED | VALUE OBSERVED |
| --- | --- | --- |
| G34A U43A | self-cleavage | 0.22 |
| A29U A38G | self-cleavage | 0.09 |
| G34A G48U | self-cleavage | 0.06 |

The variant identified as A36C C32A registered its self-cleavage at 0.06

Looking up C33U G23A , I see its self-cleavage listed as 0.09

Record G19A G51C . Reported self-cleavage: 0.08

Lab note: C25U C26A gave self-cleavage of 0.04

Record C31A G48C . Reported self-cleavage: 0.02

response.value for C21U G49A (field: self-cleavage) = 0.14

Form field self-cleavage, entry A28U G49U : 0.09

Quick note, self-cleavage for C33G G53C landed at 0.03

Looking up A7U C27A , I see its self-cleavage listed as 0.06

So, A7C C27U ? Its self-cleavage was 0.03
